# Experimental System: Rhesus PDE2A3 (Macaca mulatta, UniProt B3VTJ2)
# Sequence (B3VTJ2 1-941): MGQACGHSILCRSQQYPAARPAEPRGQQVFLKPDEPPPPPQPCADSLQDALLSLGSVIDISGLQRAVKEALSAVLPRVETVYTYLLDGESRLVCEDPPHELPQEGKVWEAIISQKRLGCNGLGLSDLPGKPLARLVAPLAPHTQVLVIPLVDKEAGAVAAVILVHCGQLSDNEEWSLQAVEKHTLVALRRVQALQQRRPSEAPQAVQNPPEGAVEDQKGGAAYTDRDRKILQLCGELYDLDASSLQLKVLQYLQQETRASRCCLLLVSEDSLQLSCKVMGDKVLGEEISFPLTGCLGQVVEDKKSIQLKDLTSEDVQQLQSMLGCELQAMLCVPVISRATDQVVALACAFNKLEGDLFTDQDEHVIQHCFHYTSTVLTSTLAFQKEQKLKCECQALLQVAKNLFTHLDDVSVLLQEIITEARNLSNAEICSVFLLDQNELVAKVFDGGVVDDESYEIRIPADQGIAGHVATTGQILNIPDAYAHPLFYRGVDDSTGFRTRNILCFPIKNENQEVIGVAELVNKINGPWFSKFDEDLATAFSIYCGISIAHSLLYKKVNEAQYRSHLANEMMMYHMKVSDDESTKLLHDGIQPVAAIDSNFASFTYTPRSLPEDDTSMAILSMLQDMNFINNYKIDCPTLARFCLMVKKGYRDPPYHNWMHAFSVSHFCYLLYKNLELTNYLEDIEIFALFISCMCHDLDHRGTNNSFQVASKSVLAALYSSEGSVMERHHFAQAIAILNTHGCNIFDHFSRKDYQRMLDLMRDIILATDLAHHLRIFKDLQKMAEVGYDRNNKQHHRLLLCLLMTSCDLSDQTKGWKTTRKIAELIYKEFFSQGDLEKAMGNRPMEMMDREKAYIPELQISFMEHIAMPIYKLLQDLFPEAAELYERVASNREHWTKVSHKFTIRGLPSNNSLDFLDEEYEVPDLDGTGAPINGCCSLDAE
# Protocol Summary: PDE2 fluorescence polarization (IMAP FP) inhibition assay, rhesus enzyme
# Type: biochemical, rhesus macaque
# Condition Info: Rhesus PDE2, Lab A; read-out: Rhesus PDE2 Ki (nM) - Lab A
Quantity Kind: Ki (nM)

Cc1nc(C(=O)N[C@@H](C)c2cccc3ccccc23)cc(=O)[nH]1 | 51400

a. Cc1nc(C(=O)NC(C)c2ccc3cc[nH]c3c2)cc(=O)[nH]1 (centres unmarked)
b. O=C(NC(c1ccc(F)cc1)c1ccc(C(F)(F)F)cc1)c1cc(=O)[nH]c(-c2ccccc2)n1 (centres unmarked)
c. CC(C)[C@@H](NC(=O)c1cc(=O)[nH]c(C2CC2)n1)c1ccc(OC(F)(F)F)c(F)c1
d. CC(NC(=O)c1cc(=O)[nH]c(C2CC2)n1)c1ccc(C2CC2)cc1 (centres unmarked)
Put the items in sequence by Ki, from largest down. Write out the labels following the order that was asked for.
a, b, d, c

I. CC(NC(=O)c1cc(=O)[nH]c(-c2ccccc2)n1)c1ccc(C(F)(F)F)cn1 (centres unmarked)
II. Cc1nc(C(=O)N[C@H](C)c2ccc(-c3cccnc3)cc2)cc(=O)[nH]1
Task for the reader: decide whether I or II has the larger Ki. Reply briefly: the label of your chosen item.
II
